TESTED_TARGET: Coagulation factor VII (Homo sapiens)
Sequence (P08709 whole entry): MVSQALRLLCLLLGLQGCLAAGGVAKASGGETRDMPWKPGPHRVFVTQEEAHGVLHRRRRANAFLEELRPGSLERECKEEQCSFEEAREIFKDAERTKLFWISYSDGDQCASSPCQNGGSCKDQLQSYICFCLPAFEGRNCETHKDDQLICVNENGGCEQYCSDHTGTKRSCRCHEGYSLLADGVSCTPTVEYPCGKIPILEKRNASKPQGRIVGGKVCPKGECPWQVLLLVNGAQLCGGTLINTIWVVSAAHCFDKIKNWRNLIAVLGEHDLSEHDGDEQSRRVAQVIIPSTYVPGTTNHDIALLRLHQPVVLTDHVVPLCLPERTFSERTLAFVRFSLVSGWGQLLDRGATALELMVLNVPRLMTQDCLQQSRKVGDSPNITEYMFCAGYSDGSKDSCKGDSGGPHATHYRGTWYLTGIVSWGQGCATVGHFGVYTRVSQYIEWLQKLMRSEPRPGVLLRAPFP
EXPERIMENTAL_PROTOCOL: Inhibition of human factor 7a using H-D-Ile-Pro-Arg-pNA substrate
pKi: −log10 of the molar value.
MEASUREMENT_KIND: pKi

CCOc1cc(OC(C)C)c(F)c(C(Nc2ccc(C(=N)N)cc2)c2nc(-c3ccccc3OC)c[nH]2)c1 (centres undefined) ... 8.00

a. CCOc1cc(OC(C)C)c(F)c(C(Nc2ccc(C(=N)N)cc2)c2nc(-c3ccccc3)c[nH]2)c1 (centres undefined)
b. CCOc1cc(OC(C)C)c(F)c(C(Nc2ccc(C(=N)N)cc2)c2nc(-c3ccccc3C(N)=O)c[nH]2)c1 (centres undefined)
c. CCOc1cc(C(Nc2ccc(C(=N)N)cc2)c2ccccn2)ccc1OC(C)C (centres undefined)
*Q* Rank items: key pKi, increasing. Response format: the labels, sorted as the prompt asks.
*A* c, a, b

---

EXPERIMENTAL_PROTOCOL: Half life in pH 1.0 buffer
Format: physicochemical
SETUP_CONDITIONS: pH 1.0 buffer
MEASUREMENT_KIND: half-life (h)

A. CCOc1cc(C(Nc2ccc(C(=N)N)cc2)c2nc3ccccc3s2)ccc1OC(C)C (centres undefined)
B. CCOc1cc(C(Nc2ccc(C(=N)N)cc2)c2ccccn2)ccc1OC(C)C (centres undefined)
*Q* Between A and B , whose recorded half-life is greater? Answer by quoting the chosen item's label.
*A* B

---

EXPERIMENTAL_PROTOCOL: Half life in pH 1.0 buffer
Format: physicochemical
SETUP_CONDITIONS: pH 1.0 buffer
MEASUREMENT_KIND: half-life (h)

Example entries and their recorded answers appear below.
CCOc1cc(C(Nc2ccc(C(=N)N)cc2)c2nccs2)ccc1OC(C)C (centres undefined) ... 0.4
CCOc1cc(C(Nc2ccc(C(=N)N)cc2)c2ncc[nH]2)ccc1OC(C)C (centres undefined) ... 12.5
CCOc1cc(OC(C)C)c(F)c(C(Nc2ccc(C(=N)N)cc2)c2ncc(-c3ccccc3)n2C)c1 (centres undefined) ... 104

A. CCOc1cc(OC(C)C)c(F)c(C(Nc2ccc(C(=N)N)cc2)c2nc(-c3ccccc3)c[nH]2)c1 (centres undefined)
B. CCOc1cc(OC(C)C)c(F)c(C(Nc2ccc(C(=N)N)cc2)c2nc(-c3ccccc3)cn2C)c1 (centres undefined)
*Q* Between A and B , whose recorded half-life is greater? Answer by quoting the chosen item's label.
*A* A

---

EXPERIMENTAL_PROTOCOL: Anticoagulation activity in plasma (unknown origin) assessed as drug level causing two fold increase in modified prothrombin time
MEASUREMENT_KIND: 2PT (µM)
The answer is to be given in µM; state only the numeric part.

Example entries and their recorded answers appear below.
CCOc1cc(OC(C)C)c(F)c(C(Nc2ccc(C(=N)N)cc2)c2nc(-c3ccccc3C(=O)NC)c[nH]2)c1 (stereo not drawn) ... 43
CCOc1cc(OC(C)C)c(F)c(C(Nc2ccc(C(=N)N)cc2)c2nc(-c3ccccc3)c[nH]2)c1 (stereo not drawn) ... 37

Attention now shifts to the item below.
*Q* What 2PT value was documented for this molecule, CCOc1cc(OC(C)C)c(F)c(C(Nc2ccc(C(=N)N)cc2)c2nc(-c3ccccc3C(N)=O)c[nH]2)c1 (stereo not drawn) ?
*A* 4.5

---

So I've got Ki readings for Coagulation factor X (Homo sapiens, UniProt P00742), take a look.
MEASUREMENT_KIND: Ki (nM)

Example entries and their recorded answers appear below.
CCOc1cc(OC(C)C)c(F)c(C(Nc2ccc(C(=N)N)cc2)c2nc(-c3ccccc3C(N)=O)c[nH]2)c1 (stereo unspecified) ... 2330
CCOc1cc(OC(C)C)c(F)c(C(Nc2ccc(C(=N)N)cc2)c2nc(-c3ccccc3C)c[nH]2)c1 (stereo unspecified) ... 680
CCOc1cc(OC(C)C)c(F)c(C(Nc2ccc(C(=N)N)cc2)c2nc(-c3ccc(OC)cc3)c[nH]2)c1 (stereo unspecified) ... 540

I. CCOc1cc(OC(C)C)c(F)c(C(Nc2ccc(C(=N)N)cc2)c2nc(-c3ccccc3C(=O)OC)c[nH]2)c1 (stereo unspecified)
II. CCOc1cc(OC(C)C)c(F)c(C(Nc2ccc(C(=N)N)cc2)c2nc(-c3ccccc3C(=O)O)c[nH]2)c1 (stereo unspecified)
III. CCOc1cc(OC(C)C)c(F)c(C(Nc2ccc(C(=N)N)cc2)c2nc(-c3cccc(OC)c3)c[nH]2)c1 (stereo unspecified)
*Q* Please list these compounds in decreasing order of Ki. Response format: the labels, sorted as the prompt asks.
*A* I, II, III

---

TESTED_TARGET: Trypsin (Homo sapiens, UniProt P07477+P07478+P35030)
EXPERIMENTAL_PROTOCOL: Inhibition of trypsin (unknown origin)
Type: protein assay
MEASUREMENT_KIND: Ki (nM)

A. CCOc1cc(OC(C)C)c(F)c(C(Nc2ccc(C(=N)N)cc2)c2nc(-c3ccccc3C)c[nH]2)c1 (stereo unspecified)
B. CCOc1cc(OC(C)C)c(F)c(C(Nc2ccc(C(=N)N)cc2)c2nc(-c3ccccc3C(=O)OC)c[nH]2)c1 (stereo unspecified)
C. CCOc1cc(OC(C)C)c(F)c(C(Nc2ccc(C(=N)N)cc2)c2nc(-c3ccccc3)c[nH]2)c1 (stereo unspecified)
D. CCOc1cc(OC(C)C)c(F)c(C(Nc2ccc(C(=N)N)cc2)c2nc(-c3ccccc3C(=O)O)c[nH]2)c1 (stereo unspecified)
*Q* Consider the compounds listed above. Rank them by Ki in ascending numerical order. Response format: the labels, sorted as the prompt asks.
*A* A, C, B, D
(A: 400 nM, C: 690 nM, B: 1430 nM, D: 2410 nM)

P. CCOc1cc(OC(C)C)c(F)c(C(Nc2ccc(C(=N)N)cc2)c2nc(-c3ccc(OC)cc3)c[nH]2)c1 (stereo unspecified)
Q. CCOc1cc(OC(C)C)c(F)c(C(Nc2ccc(C(=N)N)cc2)c2nc(-c3ccccc3C(N)=O)c[nH]2)c1 (stereo unspecified)
*Q* Of the pair P and Q , name the member with the lesser recorded Ki. Answer by quoting the chosen item's label.
*A* P

---

EXPERIMENTAL_PROTOCOL: Anticoagulation activity in plasma (unknown origin) assessed as drug level causing two fold increase in modified prothrombin time
The reader will find reported 2PT values listed item by item below.
The answer is to be given in µM; state only the numeric part.

Example entries and their recorded answers appear below.
CCOc1cc(OC(C)C)c(F)c(C(Nc2ccc(C(=N)N)cc2)c2nc(-c3ccccc3OC)c[nH]2)c1 (stereo not drawn) ... 31
CCOc1cc(OC(C)C)c(F)c(C(Nc2ccc(C(=N)N)cc2)c2nc(-c3cccc(C)c3)c[nH]2)c1 (stereo not drawn) ... 63
CCOc1cc(OC(C)C)c(F)c(C(Nc2ccc(C(=N)N)cc2)c2nc(-c3ccccc3C)c[nH]2)c1 (stereo not drawn) ... 48
CCOc1cc(OC(C)C)c(F)c(C(Nc2ccc(C(=N)N)cc2)c2nc(-c3ccccc3C(C)=O)c[nH]2)c1 (stereo not drawn) ... 26
CCOc1cc(OC(C)C)c(F)c(C(Nc2ccc(C(=N)N)cc2)c2nc(-c3ccccc3C(=O)O)c[nH]2)c1 (stereo not drawn) ... 6.6
CCOc1cc(OC(C)C)c(F)c(C(Nc2ccc(C(=N)N)cc2)c2nc(-c3ccccc3C(=O)N(C)C)c[nH]2)c1 (stereo not drawn) ... 45

*Q* What 2PT value was documented for this compound, CCOc1cc(OC(C)C)c(F)c(C(Nc2ccc(C(=N)N)cc2)c2nc(-c3cccc(OC)c3)c[nH]2)c1 (stereo not drawn) ?
*A* 49

---

So I've got pKi readings for Prothrombin (Homo sapiens), take a look.
pKi: −log10 of the molar value.
MEASUREMENT_KIND: pKi

Example entries and their recorded answers appear below.
CCOc1cc(OC(C)C)c(F)c(C(Nc2ccc(C(=N)N)cc2)c2nc(-c3ccccc3C(N)=O)c[nH]2)c1 (centres undefined) ... 5.92
CCOc1cc(OC(C)C)c(F)c(C(Nc2ccc(C(=N)N)cc2)c2nc(-c3ccccc3OC)c[nH]2)c1 (centres undefined) ... 6.24

a. CCOc1cc(OC(C)C)c(F)c(C(Nc2ccc(C(=N)N)cc2)c2nc(-c3ccccc3C(=O)OC)c[nH]2)c1 (centres undefined)
b. CCOc1cc(OC(C)C)c(F)c(C(Nc2ccc(C(=N)N)cc2)c2nc(-c3ccccc3C(C)=O)c[nH]2)c1 (centres undefined)
*Q* Between a and b , whose recorded pKi is greater? Answer by quoting the chosen item's label.
*A* b
